System: SCp2 cells
assayComment: LC50 of PALA for SCp2 cells
measurementSetup: read-out: LC50 of PALA for SCp2 cells
metric: CC50
State the value with its unit after it.

Noted for O=C(O)C[C@H](NC(=O)CP(=O)(O)O)C(=O)O [PALA, N-(phosphonacetyl)-L-aspartate] : its CC50 reads 25 µM
